system: Human immunodeficiency virus 1; assay: Anti-HIV activity against HIV-1 IIIB infected in MT-4 cells; assay type: functional, organism-based; conditions: Human immunodeficiency virus 1, IIIB, MT4
measured-property: pIC50
Scale explanation: pIC50 corresponds to minus log10 of a concentration expressed in moles per litre.

Could you tell me which pIC50 is on file for C1CNCCNCCCNC(C2CNCCCNCCNCCCN2)CNC1 (stereo unspecified) ?
7.00

----------
Exercise: state measured pIC50 for each of the compounds provided.
target: C-X-C chemokine receptor type 4 (Homo sapiens, UniProt P61073); test: Binding affinity to CXCR4 (unknown origin)
Sequence (P61073 whole entry): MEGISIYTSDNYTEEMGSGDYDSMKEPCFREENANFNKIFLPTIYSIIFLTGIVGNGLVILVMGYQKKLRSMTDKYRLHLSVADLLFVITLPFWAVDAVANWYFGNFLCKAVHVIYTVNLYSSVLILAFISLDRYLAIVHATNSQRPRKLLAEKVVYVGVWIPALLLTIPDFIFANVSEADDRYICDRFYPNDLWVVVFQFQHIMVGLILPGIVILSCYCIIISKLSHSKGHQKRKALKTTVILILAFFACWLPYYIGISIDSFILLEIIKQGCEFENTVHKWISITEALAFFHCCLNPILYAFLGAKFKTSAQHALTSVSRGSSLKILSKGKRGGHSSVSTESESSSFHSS
A value of pIC50 is the negative decimal logarithm of a concentration given in moles per litre.

Query (compound): COC(=O)C(=O)c1ccc(CN(Cc2nc3ccccc3[nH]2)C2CCCc3cccnc32)c(CN)c1 (configuration not stated) ; field requested: pIC50
8.00

Endpoint output: pIC50 of NCc1cc(C(N)=O)ccc1CN(Cc1nc2ccccc2[nH]1)C1CCCc2cccnc21 (configuration not stated) . Value?
8.00
